TARGET_OF_ASSAY: Cyclooxygenase-2 (COX-2) (Ovis aries, UniProt P79208)
Sequence (P79208 17-603): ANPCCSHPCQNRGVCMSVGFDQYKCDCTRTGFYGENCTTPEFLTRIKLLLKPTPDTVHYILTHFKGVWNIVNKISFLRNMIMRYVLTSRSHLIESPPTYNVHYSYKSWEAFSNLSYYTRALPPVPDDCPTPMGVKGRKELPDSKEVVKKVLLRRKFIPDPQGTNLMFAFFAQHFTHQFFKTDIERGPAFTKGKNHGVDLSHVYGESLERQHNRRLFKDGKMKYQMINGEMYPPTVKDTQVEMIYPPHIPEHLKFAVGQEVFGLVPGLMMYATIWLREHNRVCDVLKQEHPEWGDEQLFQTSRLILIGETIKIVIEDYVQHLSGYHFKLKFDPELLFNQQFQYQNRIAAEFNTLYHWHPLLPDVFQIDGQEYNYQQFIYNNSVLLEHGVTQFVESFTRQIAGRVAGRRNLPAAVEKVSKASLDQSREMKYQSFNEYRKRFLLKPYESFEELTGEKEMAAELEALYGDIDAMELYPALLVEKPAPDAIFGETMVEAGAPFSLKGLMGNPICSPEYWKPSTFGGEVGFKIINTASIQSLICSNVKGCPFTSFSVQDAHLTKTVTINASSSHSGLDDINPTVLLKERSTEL
ASSAY_METRIC: pIC50
// returns pIC50 (minus log10 of molar concentration), number only

IN: Retrieve pIC50 measured for CSc1ccc(CCSc2nc(-c3ccncc3)c(-c3ccc(F)cc3)[nH]2)cc1 [Example 6] and print it.
OUT: 5.52

----------
TARGET_OF_ASSAY: 5-lipoxygenase (5-LO) (Homo sapiens, UniProt P09917)
Construct: The source used for the 5-lipoxygenase is human granulocytes; endogenous in cells
Sequence (P09917 whole entry): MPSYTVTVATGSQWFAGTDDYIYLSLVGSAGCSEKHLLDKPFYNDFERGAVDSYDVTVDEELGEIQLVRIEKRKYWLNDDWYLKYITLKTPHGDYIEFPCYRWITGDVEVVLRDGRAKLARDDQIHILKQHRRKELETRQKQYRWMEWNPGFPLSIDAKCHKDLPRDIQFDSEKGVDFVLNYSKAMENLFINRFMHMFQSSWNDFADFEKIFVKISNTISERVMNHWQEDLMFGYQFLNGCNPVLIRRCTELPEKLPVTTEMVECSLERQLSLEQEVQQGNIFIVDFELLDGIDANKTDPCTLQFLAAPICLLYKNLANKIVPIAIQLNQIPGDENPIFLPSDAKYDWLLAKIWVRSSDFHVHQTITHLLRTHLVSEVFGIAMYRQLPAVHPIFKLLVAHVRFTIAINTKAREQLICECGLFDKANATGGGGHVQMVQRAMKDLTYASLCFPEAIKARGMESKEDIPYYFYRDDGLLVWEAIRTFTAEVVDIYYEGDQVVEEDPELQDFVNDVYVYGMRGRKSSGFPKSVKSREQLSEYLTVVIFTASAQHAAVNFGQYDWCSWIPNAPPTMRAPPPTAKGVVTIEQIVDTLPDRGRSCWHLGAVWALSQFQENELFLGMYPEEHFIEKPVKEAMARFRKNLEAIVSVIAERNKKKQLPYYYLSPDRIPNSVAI
ASSAY_REMARKS: Inhibition of 5-lipoxygenase: LTB4 formation in human granulocytes stimulated with calcium ionophore A 23187, ELISA
TEST_CONDITIONS: A 23187, LTB4 ELISA
ASSAY_METRIC: pIC50
// returns pIC50 (minus log10 of molar concentration), number only

# count of solved cases: 4
C[S+]([O-])c1ccc(CSc2nc(-c3ccncc3)c(-c3ccc(F)cc3)[nH]2)cc1 (stereo not drawn) [Example 2] ... 5.00
CS(=O)(=O)c1ccc(CSc2nc(-c3ccncc3)c(-c3ccc(F)cc3)[nH]2)cc1 [Example 3] ... 6.10
NS(=O)(=O)c1ccc(CSc2nc(-c3ccncc3)c(-c3ccc(F)cc3)[nH]2)cc1 [Example 5] ... 5.55
NS(=O)(=O)c1ccc(CCSc2nc(-c3ccncc3)c(-c3ccc(F)cc3)[nH]2)cc1 [Example 4] ... 7.07

Could you now consider this next compound?
IN: Retrieve pIC50 measured for CSc1ccc(CSc2nc(-c3ccncc3)c(-c3ccc(F)cc3)[nH]2)cc1 [Example 1] and print it.
OUT: 7.19

----------
Test system: IL-1β
ASSAY_REMARKS: Inhibition of LPS-stimulated cytokine secretion in human PBMC (IL-1β)
Assay type: cell-based
TEST_CONDITIONS: LPS 1 μg/ml, 24 h
ASSAY_METRIC: IC50

# count of solved cases: 3
C[S+]([O-])c1ccc(CSc2nc(-c3ccncc3)c(-c3ccc(F)cc3)[nH]2)cc1 (stereo not drawn) ... 2.3 µM
C[S+]([O-])c1ccc(O)c(CSc2nc(-c3ccncc3)c(-c3ccc(F)cc3)[nH]2)c1 (stereo not drawn) ... 0.64 µM
NS(=O)(=O)c1ccc(CCSc2nc(-c3ccncc3)c(-c3ccc(F)cc3)[nH]2)cc1 ... 9.3 µM

IN: Retrieve IC50 measured for NS(=O)(=O)c1ccc(CSc2nc(-c3ccncc3)c(-c3ccc(F)cc3)[nH]2)cc1 and print it.
OUT: 18 µM

IN: Retrieve IC50 measured for CS(=O)(=O)c1ccc(-c2nc(-c3ccc(F)cc3)c(-c3ccncc3)[nH]2)cc1 [Reference B, reference compound] and print it.
OUT: 7.5 µM

----------
TARGET_OF_ASSAY: Cyclooxygenase-1 (COX-1) (Homo sapiens)
Construct: endogenous in cells
Sequence (P23219 24-599): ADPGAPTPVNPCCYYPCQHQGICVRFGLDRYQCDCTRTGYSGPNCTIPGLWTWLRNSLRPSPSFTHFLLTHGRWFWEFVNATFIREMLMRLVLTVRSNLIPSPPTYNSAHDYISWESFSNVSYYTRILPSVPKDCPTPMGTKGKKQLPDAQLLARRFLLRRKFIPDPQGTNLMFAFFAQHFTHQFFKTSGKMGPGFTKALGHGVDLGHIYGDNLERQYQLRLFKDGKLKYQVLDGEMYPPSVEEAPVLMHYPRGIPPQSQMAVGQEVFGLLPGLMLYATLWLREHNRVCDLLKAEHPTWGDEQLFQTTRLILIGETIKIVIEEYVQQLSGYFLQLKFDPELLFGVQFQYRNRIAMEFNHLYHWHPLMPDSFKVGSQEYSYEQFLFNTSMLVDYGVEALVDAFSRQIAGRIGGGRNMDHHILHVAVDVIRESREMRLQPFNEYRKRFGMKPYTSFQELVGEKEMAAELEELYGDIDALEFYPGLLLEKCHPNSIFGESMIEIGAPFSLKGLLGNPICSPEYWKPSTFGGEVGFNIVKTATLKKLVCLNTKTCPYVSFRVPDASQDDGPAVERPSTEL
ASSAY_REMARKS: Inhibition of cyclooxygenase-1: prostaglandin E2 formed by human platelets after calcium ionophore, ELISA
TEST_CONDITIONS: PGE2 ELISA
ASSAY_METRIC: IC50

NS(=O)(=O)c1ccc(CSc2nc(-c3ccncc3)c(-c3ccc(F)cc3)[nH]2)cc1 ... 38 nM

IN: Retrieve IC50 measured for NS(=O)(=O)c1ccc(CCSc2nc(-c3ccncc3)c(-c3ccc(F)cc3)[nH]2)cc1 and print it.
OUT: 2200 nM

IN: Retrieve IC50 measured for CSc1ccc(CSc2nc(-c3ccncc3)c(-c3ccc(F)cc3)[nH]2)cc1 and print it.
OUT: 3400 nM

IN: Retrieve IC50 measured for CSc1ccc(CCSc2nc(-c3ccncc3)c(-c3ccc(F)cc3)[nH]2)cc1 and print it.
OUT: 6500 nM
